Molecular target: human ether-à-go-go-related gene (hERG) potassium channel (human, UniProt Q12809);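 also: peak tail current of the secondary pulse compared with the same well before compound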
Sequence (Q12809 whole entry, looked up): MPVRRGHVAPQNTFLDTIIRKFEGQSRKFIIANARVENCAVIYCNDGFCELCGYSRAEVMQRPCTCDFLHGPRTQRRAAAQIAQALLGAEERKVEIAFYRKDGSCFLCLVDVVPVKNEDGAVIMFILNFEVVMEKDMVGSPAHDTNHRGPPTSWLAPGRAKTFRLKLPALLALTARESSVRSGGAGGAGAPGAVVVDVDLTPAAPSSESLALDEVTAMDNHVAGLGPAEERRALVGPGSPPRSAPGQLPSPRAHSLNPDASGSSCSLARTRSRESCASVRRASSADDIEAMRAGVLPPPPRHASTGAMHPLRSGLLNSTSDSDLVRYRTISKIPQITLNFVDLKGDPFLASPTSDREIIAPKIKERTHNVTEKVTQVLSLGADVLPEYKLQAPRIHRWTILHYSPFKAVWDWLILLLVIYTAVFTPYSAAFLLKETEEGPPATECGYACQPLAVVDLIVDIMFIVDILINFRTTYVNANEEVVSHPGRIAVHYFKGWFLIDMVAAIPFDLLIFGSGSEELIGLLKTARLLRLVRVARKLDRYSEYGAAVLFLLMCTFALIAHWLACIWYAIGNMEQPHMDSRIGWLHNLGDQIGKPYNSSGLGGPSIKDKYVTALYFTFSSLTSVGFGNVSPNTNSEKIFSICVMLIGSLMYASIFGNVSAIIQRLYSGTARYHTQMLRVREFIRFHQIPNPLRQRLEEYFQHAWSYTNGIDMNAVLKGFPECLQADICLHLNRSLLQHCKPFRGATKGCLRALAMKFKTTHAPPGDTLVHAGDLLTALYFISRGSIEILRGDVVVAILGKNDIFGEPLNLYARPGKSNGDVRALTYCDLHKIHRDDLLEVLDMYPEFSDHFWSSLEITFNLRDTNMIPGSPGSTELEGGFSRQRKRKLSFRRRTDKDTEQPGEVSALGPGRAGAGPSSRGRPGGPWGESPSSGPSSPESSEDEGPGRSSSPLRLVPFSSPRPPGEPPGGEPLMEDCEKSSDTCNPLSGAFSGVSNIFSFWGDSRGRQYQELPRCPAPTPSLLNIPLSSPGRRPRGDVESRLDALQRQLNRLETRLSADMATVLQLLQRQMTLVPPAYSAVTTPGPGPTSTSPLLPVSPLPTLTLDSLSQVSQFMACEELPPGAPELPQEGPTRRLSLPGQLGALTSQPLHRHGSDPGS
Test: primary screen, population patch clamp on CHO cells stably expressing hERG; higher = less effect of the substance
In all, about 310,000 compounds went through this assay and about 14,000 (4.5%) showed an effect of 50% or more. The effect is printed as a negative number. Many of the other results were omitted from the sample, so strong results are more common in it than they were.
hERG current change (%, negative = inhibition) at 10uM of -20% or higher: Condition met. Under -20%: Condition not met.

Below are worked cases with known answers.
C/C(=N/NC(=O)CNC(=O)Cc1ccccc1)c1ccc(Cl)cc1: Condition met
Cc1ccc(-c2csc(NC(=O)CCNC(=O)c3ccccc3Cl)n2)cc1: Condition met
CC(=O)c1ccc(S(=O)c2ccccc2)cc1 (centres unmarked): Condition met
COc1ccc(-n2c(CNc3ccc(C)cc3)nnc2SCC(=O)Nc2nc(-c3ccccc3)cs2)cc1: Condition not met

Ask: Hi, just wondering whether Cn1ncc(Cl)c(Oc2ccc(C(C)(C)C)cc2)c1=O shows hERG current change (%, negative = inhibition) at 10uM of -20% or higher.
Result: Condition not met

----------
Molecular target: human ether-à-go-go-related gene (hERG) potassium channel (human);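 also: peak tail current of the secondary pulse compared with the same well before compound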
Assay: primary screen, population patch clamp on CHO cells stably expressing hERG; higher = less effect of the substance
Out of some 310,000 compounds screened, about 14,000 (4.5%) showed an effect of 50% or more. Effects have a minus sign here. Shown is part of a subset that was picked to be rich in strong results.
MEASUREMENT_NAME: hERG current change (%, negative = inhibition) at 10uM
Answer with the figure and its unit, nothing else.

Use the examples below as a reference point.
Cn1c(=O)c2c(ncn2C)n(C)c1=O: 10.1%
Cc1cc(C)cc(NC(=O)CSc2nc3[nH]ncc3c(=O)[nH]2)c1: 11.8%
CCCC[C@@H](CNC)NC[C@H](Cc1ccc(O)cc1)NCCc1ccc(OCC)cc1: -53.7%
CCCc1[nH]n(-c2nc3ccccc3s2)c(=O)c1C=NCCN1CCOCC1: -34.5%
COc1ccc(N(CC(=O)NCc2ccc3c(c2)OCO3)C(=O)c2csnn2)cc1: -13.6%
CCNC(=O)CSc1nc(-c2ccccc2)cs1: -4.81%

Ask: // lookup hERG current change (%, negative = inhibition) at 10uM for Cc1cc(-c2cc(-c3ccccc3)on2)nc(NC2CCCC2)n1
Result: 15.7%

Ask: Return reported hERG current change (%, negative = inhibition) at 10uM; argument: CCCNC(=O)c1ccc2c(c1)ncn2-c1ccccc1OC
Result: -60.3%

Ask: Quick one: hERG current change (%, negative = inhibition) at 10uM for Cc1ccc(O)c(Nc2ncnc3ccccc23)c1.Cl ?
Result: 11.8%

Ask: What hERG current change (%, negative = inhibition) at 10uM value was documented for this compound, Cc1ccc(O)c(Nc2c3ccccc3nc3ccccc23)c1 ?
Result: -52.8%

Ask: // lookup hERG current change (%, negative = inhibition) at 10uM for CC(=O)N1c2ccc(S(=O)(=O)N(C)CC(=O)NC3CCCC3)cc2CC1C (stereo not shown)
Result: -23.1%

Ask: Would you kindly share the measured hERG current change (%, negative = inhibition) at 10uM for CC1CCN(CCOCCOc2ccccc2-c2ccccc2)CC1 ?
Result: -57.2%

Ask: I am curious: what hERG current change (%, negative = inhibition) at 10uM value has been reported for Cc1cc(C)cc(-n2cnc3cc(C(=O)O)ccc32)c1 ?
Result: 2.82%

Ask: Return reported hERG current change (%, negative = inhibition) at 10uM; argument: Cc1ccc(N=Cc2ccc(O)cc2O)cc1F
Result: 20.6%

Ask: Which measured hERG current change (%, negative = inhibition) at 10uM value corresponds to COc1ccc(Nc2nc(-c3ccccc3F)nc3ccccc23)cc1OC ?
Result: 0.695%

Ask: // returns reported hERG current change (%, negative = inhibition) at 10uM for input Cc1cc(Cl)c(S(=O)(=O)N(C)C)cc1OCC(N)=O
Result: 10.5%

Ask: Quick one: hERG current change (%, negative = inhibition) at 10uM for COC(=O)Cc1[nH]n(-c2nc3ccccc3s2)c(=O)c1C(C)=O ?
Result: 21.6%

Ask: # lookup: hERG current change (%, negative = inhibition) at 10uM of CCCc1cc(=O)n(-c2nc3ccccc3s2)[nH]1
Result: 11.2%
